Molecular target: HLA-B*07 (Homo sapiens)
Assay: MHC binding assay (UV-ligand exchange, β2m ELISA)
Quantity: Peptide exchange (peptide exchange yield, MHC class I binding score)

Recorded results for 4 substances are shown here.
1. 222 (NPFYPEVEL; listed as Homo sapiens) [compound 222] :: “+++” (>50 = +++)
2. 460 (MPMAGDMNGL; listed as Homo sapiens) [compound 460] :: “++++” (>75% = ++++)
3. 268 (YPLFRGINL; listed as Homo sapiens) [compound 268] :: “++++” (>75% = ++++)
4. 221 (VPDVAQFVL; listed as Homo sapiens) [compound 221] :: “++++” (>75% = ++++)

Observed Peptide exchange (peptide exchange yield, MHC class I binding score) on HLA-B*07 (Homo sapiens), entry 459 (RPMQQARAQL; listed as Homo sapiens) [compound 459] , equals “+++” (>50 = +++)

Observed Peptide exchange (peptide exchange yield, MHC class I binding score) on HLA-B*07 (Homo sapiens), entry 257 (LPRIPFADV; listed as Homo sapiens) [compound 257] , equals “++++” (>75% = ++++)

Observed Peptide exchange (peptide exchange yield, MHC class I binding score) on HLA-B*07 (Homo sapiens), entry 269 (APRAPRLML; listed as Homo sapiens) [compound 269] , equals “++++” (>75% = ++++)

Observed Peptide exchange (peptide exchange yield, MHC class I binding score) on HLA-B*07 (Homo sapiens), entry 286 (VPTLRSEL; listed as Homo sapiens) [compound 286] , equals “++++” (>75% = ++++)

----------
Test system: HLA-B*44
Assay: MHC binding assay (UV-ligand exchange, β2m ELISA)
Design: species or system human
Conditions: UV-ligand exchange, β2m ELISA
Quantity: Peptide exchange (peptide exchange yield, MHC class I binding score)

Recorded results for 5 substances are shown here.
1) 328 (FEYDFLLQRI; listed as Homo sapiens) [compound 328] :: “++++” (>75% = ++++)
2) 322 (KEVDPAGHSY; listed as Homo sapiens) [compound 322] :: “++” (>20% = ++)
3) 350 (GECDVFKEIL; listed as Homo sapiens) [compound 350] :: “+++” (>50 =+++)
4) 325 (QEQDVDLVQKY; listed as Homo sapiens) [compound 325] :: “++” (>20% = ++)
5) 484 (AEVGFVRFF; listed as Homo sapiens) [compound 484] :: “++++” (>75% = ++++)

Record 329 (NEHPSNNW; listed as Homo sapiens) [compound 329] , field Peptide exchange (peptide exchange yield, MHC class I binding score): “+++” (>50 =+++)

Record 487 (AEDQLHHSF; listed as Homo sapiens) [compound 487] , field Peptide exchange (peptide exchange yield, MHC class I binding score): “+++” (>50 =+++)

Record 360 (AEVPTGVII; listed as Homo sapiens) [compound 360] , field Peptide exchange (peptide exchange yield, MHC class I binding score): “++++” (>75% = ++++)

Record 338 (SEGSEPALLHSW; listed as Homo sapiens) [compound 338] , field Peptide exchange (peptide exchange yield, MHC class I binding score): “+++” (>50 =+++)

----------
Biological target: HLA-A*03 (Homo sapiens)
Assay: MHC binding assay (UV-ligand exchange, β2m ELISA)
Quantity: Peptide exchange (peptide exchange yield, MHC class I binding score)

1) 218 (KTLVAELLILK; listed as Homo sapiens) [compound 218] :: “+++” (>50 = +++)
2) 203 (KVKDTPGLGK; listed as Homo sapiens) [compound 203] :: “++++” (>75% = ++++)
3) 216 (KLYAWELAF; listed as Homo sapiens) [compound 216] :: “+++” (>50 = +++)
4) 202 (KLAELEGALQK; listed as Homo sapiens) [compound 202] :: “++++” (>75% = ++++)

Kindly review the next substance as well.
Record 219 (RLRSSLVFK; listed as Homo sapiens) [compound 219] , field Peptide exchange (peptide exchange yield, MHC class I binding score): “++++” (>75% = ++++)
